# PBM binding z-score annotations
- Test system: RARg homodimer (NR concentration 270 nM)
- testMethodNotes: PBM binding z-score (relative to random genomic background probes); higher = stronger binding; sequences stand for … in GC…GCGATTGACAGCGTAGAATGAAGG

sequence | PBM binding z-score
CGAACTAGGTCACCAGGGCAGTGAAGAGGTTGGA | 5.52
ATCTGTAGGTTATCGGGTCATTCAGTTTGCGCAT | 2.78
CGTCCAACGTCAAGGTCAGTGAAAGAGACTCGAA | 3.16
ATATGTAGGTTAGGGTCATTCTGAAAGTAGGGAA | 2.78
CAAACTAGGTCAAAGGTCAAAGACGAGCCAACCA | 7.66
CCTTACGGGTCACTCTAGGTTATAGCATCGGAGT | 4.38
TTACGAAGGTGAAAGGTCGTTGATGCACGCCTTG | 2.19
CCTACTGGGTCATTCAGAGGTCATTGATCATATG | 5.46
CCTGCTAGGTCATGGTCAGGTAATCTACAGTATG | 4.73
CCGAGTAGGTAACGAGGGGGCATTCAGTGCGAAT | 1.27
GCTGCTAGGTAAGGTTGGTCAGCTAACGGGTACG | -0.313
CCTAGTTGGTCAAGGTCTCACACGCTATAGGTAC | 1.21
TAGCCTAGGTGATTGGGCCAGTATAGTACGCATC | -0.119
CGAACTAGGTGACCAGGACAGTGAAGAGGTTGGA | 0.705
CCGAGTAGGTTACGAGGGTGCATTCAGTGCGAAT | 0.734
CGTCCAAGGTCAGTGAGGTCAGTGAATGCCGAGT | 6.56
CGTCAAAGTTCAACTAAGGTAACGTATAGCACGC | 6.62
CGAACTAGGTCACCAGGACAGTGTAGAGGTTGGA | 5.47
CGTCCAAGGTCAGAGAGGTCAGTGTATGCCGAGT | 6.77
CTATGTAGGTTAAGGGTGTCATTCAGTTTGAAAG | 0.949
